Data provenance is patent US20250011363A1.

Molecular target: acetylcholine receptor
Assay: SPR, AchR immobilized on chip
outcome-measure: Binding affinity (relative to RRGVRR) (value relative to the RRGVRR sequence)

WRRGVRR    134
PRRGVRR    138
RRGVRRC    131
VRRGVRR    140
ERRGVRR    43

A = RRGVRRQ
B = RRGVRRE
Request: Record comparison, field Binding affinity (relative to RRGVRR) (value relative to the RRGVRR sequence): mark the lower of A and B . Answer = label.
Result: B
(B: 33, A: 105)
